target: Mcl-1/Bim interaction, recombinant human Mcl-1 (171-327) (Homo sapiens, UniProt Q07820); construct: made in house; assay: Cell free Mcl-1: Bim Affinity Assay (Mcl-1 HTRF); assay type: binding; conditions: TR-FRET, 0.1 nM Mcl-1 (171-327), 0.05 nM biotin-Bim (51-76)
Sequence (Q07820 171-327): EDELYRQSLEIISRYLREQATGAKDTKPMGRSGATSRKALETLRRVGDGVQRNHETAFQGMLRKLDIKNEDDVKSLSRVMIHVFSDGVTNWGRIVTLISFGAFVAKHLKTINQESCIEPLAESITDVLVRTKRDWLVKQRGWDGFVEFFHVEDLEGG
pIC50: −log10 of the molar value.
experimental.endpoint: pIC50

INSERT INTO results (molecule, experimental_endpoint, assay_value) VALUES
  ('CC1CC=CC(OCC(C)N2CCOCC2)C2CCC2CN2CC3(CCCc4cc(Cl)ccc43)COc3ccc(cc32)C(=O)NS(=O)(=O)C1CC1CC1 (stereo not drawn)', 'pIC50', 8.78),
  ('COC1C=CC(CO)CC(C)S(=O)(=O)NC(=O)c2ccc3c(c2)N(CC2CCC21)CC1(CCCc2cc(Cl)ccc21)CO3 (single isomer, unassigned)', 'pIC50', 9.22),
  ('C[C@@H]1[C@@H](C)C[C@H](CC(=O)N2CC(O)C2)/C=C/[C@@H]2CC[C@H]2CN2C[C@@]3(CCCc4cc(Cl)ccc43)COc3ccc(cc32)C(=O)NS1(=O)=O', 'pIC50', 9.01);
